study.target: T1, human CD3 on CD3-expressing cells (Jurkat, human T cells) (human, UniProt P07766 23-207; P04234 22-171)
T1 construct: On cells CD3 stands within the T cell receptor complex (also gamma and zeta chains); also called human CD3 expressing Jurkat cells
T1 sequence (P07766 23-207 limits assumed, chain 1 of 2): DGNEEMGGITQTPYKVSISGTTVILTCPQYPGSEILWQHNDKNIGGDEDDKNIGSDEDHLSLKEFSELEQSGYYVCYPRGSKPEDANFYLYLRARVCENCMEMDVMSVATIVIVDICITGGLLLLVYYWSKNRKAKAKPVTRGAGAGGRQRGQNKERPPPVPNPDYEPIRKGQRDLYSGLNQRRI
T1 sequence (P04234 22-171 limits assumed, chain 2 of 2): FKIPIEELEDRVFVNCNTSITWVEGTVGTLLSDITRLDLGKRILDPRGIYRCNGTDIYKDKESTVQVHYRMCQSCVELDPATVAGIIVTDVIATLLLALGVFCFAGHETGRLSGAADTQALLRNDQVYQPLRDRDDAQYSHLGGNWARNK
protocol.description: FACS on Jurkat cells
attribute.measured: EC50 (nM)
Entry rule: numbers only, all in nM.

Prompt: What value of measured EC50 is listed for BSPSMA/CD3-005 (bispecific antibody, IgG4, V domains shown, modified (chimeric) IgG4 Fc domain; also called PSMA-VH-11810 x CD3-VH-G20) VH 1: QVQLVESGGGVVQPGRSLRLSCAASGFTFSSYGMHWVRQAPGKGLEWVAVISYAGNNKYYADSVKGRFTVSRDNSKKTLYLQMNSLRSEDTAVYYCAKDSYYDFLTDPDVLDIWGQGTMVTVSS VH 2: EVQLVESGGGLVQPGRSLRLSCAASGFTFDDYSMHWVRQAPGKGLEWVSGISWNSGSIGYADSVKGRFTISRDNAKNSLYLQMNSLRAEDTALYYCAKYGSGYGKFYYYGMDVWGQGTTVTVSS VL: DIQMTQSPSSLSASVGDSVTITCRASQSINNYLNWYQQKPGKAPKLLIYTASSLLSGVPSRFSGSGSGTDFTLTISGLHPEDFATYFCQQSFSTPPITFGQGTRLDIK ?
Completion: 210

Prompt: Need EC50, item BSPSMA/CD3-1300 (bispecific antibody, IgG4, V domains shown, modified (chimeric) IgG4 Fc domain; also called PSMA-VH-11810 x CD3-VH-G13) VH 1: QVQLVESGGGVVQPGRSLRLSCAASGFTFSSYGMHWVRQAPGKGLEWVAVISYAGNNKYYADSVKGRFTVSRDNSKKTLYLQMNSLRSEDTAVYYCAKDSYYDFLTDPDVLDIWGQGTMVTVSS VH 2: EVQLVESGGGLVQPGRSLRLSCAASGFTFDDYSMHWVRQAPGKGLEWVSGISWNSGSIGYADSVKGRFTISRDNAKNSLYLQMNSLRAEDTALYYCAKYGSGYGKFYYYGLDVWGQGTTVTVSS VL: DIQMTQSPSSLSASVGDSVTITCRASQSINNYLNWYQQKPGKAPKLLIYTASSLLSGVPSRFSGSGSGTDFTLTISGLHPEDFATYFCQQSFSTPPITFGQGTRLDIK
Completion: 102

Prompt: Sample BSPSMA/CD3-2100 (bispecific antibody, IgG4, V domains shown, modified (chimeric) IgG4 Fc domain; also called PSMA-VH-11810 x CD3-VH-G21) VH 1: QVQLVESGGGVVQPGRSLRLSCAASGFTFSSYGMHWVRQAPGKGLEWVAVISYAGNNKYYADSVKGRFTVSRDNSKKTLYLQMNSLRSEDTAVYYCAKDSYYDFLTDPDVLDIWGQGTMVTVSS VH 2: EVQLVESGGGLVQPGRSLRLSCAASGFTFDDYSMHWVRQAPGKGLEWVSGISWNSGSKGYADSVKGRFTISRDNAKNSLYLQMNSLRAEDTALYYCAKDGSGYGKFYYYGMDVWGQGTTVTVSS VL: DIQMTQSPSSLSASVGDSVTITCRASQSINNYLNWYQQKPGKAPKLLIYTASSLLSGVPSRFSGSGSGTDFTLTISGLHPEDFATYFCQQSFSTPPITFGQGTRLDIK — what was its EC50?
Completion: 106

Prompt: Any idea what its EC50 is? The binder is BSPSMA/CD3-003 (bispecific antibody, IgG4, V domains shown, modified (chimeric) IgG4 Fc domain; also called PSMA-VH-11810 x CD3-VH-G) VH 1: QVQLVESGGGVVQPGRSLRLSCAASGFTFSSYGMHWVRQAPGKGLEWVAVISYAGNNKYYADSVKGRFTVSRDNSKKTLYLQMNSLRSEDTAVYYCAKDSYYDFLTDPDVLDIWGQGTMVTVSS VH 2: EVQLVESGGGLVQPGRSLRLSCAASGFTFDDYSMHWVRQAPGKGLEWVSGISWNSGSKGYADSVKGRFTISRDNAKNSLYLQMNSLRAEDTALYYCAKYGSGYGKFYHYGLDVWGQGTTVTVSS VL: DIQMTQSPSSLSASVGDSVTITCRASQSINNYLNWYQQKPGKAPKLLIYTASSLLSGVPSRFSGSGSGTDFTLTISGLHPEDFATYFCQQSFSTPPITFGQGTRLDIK
Completion: 16.5

Prompt: Request the reported EC50 associated with BSPSMA/CD3-1400 (bispecific antibody, IgG4, V domains shown, modified (chimeric) IgG4 Fc domain; also called PSMA-VH-11810 x CD3-VH-G14) VH 1: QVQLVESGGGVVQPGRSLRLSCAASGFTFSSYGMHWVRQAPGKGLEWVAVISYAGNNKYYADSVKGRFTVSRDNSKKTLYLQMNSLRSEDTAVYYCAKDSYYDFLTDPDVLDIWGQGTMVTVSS VH 2: EVQLVESGGGLVQPGRSLRLSCAASGFTFDDYSMHWVRQAPGKGLEWVSGISWNSGSIGYADSVKGRFTISRDNAKNSLYLQMNSLRAEDTALYYCAKYGSGYGKFYHYGMDVWGQGTTVTVSS VL: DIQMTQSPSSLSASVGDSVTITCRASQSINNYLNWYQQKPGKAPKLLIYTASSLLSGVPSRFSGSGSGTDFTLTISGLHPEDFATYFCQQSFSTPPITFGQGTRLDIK
Completion: 31.9

Prompt: Quick one: EC50 for BSPSMA/CD3-1600 (bispecific antibody, IgG4, V domains shown, modified (chimeric) IgG4 Fc domain; also called PSMA-VH-11810 x CD3-VH-G16) VH 1: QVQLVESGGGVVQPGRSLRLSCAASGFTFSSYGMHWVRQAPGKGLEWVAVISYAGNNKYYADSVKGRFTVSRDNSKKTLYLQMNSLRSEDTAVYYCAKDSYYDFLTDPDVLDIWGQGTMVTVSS VH 2: EVQLVESGGGLVQPGRSLRLSCAASGFTFDDYSMHWVRQAPGKGLEWVSGISWNSGSKGYADSVKGRFTISRDNAKNSLYLQMNSLRAEDTALYYCAKDGSGYGKFYHYGMDVWGQGTTVTVSS VL: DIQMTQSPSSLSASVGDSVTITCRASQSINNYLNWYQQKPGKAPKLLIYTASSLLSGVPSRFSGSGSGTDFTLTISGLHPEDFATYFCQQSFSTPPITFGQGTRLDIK ?
Completion: 56.8

Prompt: Return reported EC50; argument: BSPSMA/CD3-1100 (bispecific antibody, IgG4, V domains shown, modified (chimeric) IgG4 Fc domain; also called PSMA-VH-11810 x CD3-VH-G11) VH 1: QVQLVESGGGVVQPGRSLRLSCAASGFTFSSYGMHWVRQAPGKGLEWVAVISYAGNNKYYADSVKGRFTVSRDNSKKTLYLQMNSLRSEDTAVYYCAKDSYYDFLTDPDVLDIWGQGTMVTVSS VH 2: EVQLVESGGGLVQPGRSLRLSCAASGFTFDDYSMHWVRQAPGKGLEWVSGISWNSGSKGYADSVKGRFTISRDNAKNSLYLQMNSLRAEDTALYYCAKYGSGYGKFYHYGMDVWGQGTTVTVSS VL: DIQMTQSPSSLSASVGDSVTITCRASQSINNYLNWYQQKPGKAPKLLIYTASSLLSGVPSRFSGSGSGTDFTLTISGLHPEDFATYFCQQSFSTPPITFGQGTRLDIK
Completion: 18.3

Prompt: # EC50 lookup, item BSPSMA/CD3-900 (bispecific antibody, IgG4, V domains shown, modified (chimeric) IgG4 Fc domain; also called PSMA-VH-11810 x CD3-VH-G9) VH 1: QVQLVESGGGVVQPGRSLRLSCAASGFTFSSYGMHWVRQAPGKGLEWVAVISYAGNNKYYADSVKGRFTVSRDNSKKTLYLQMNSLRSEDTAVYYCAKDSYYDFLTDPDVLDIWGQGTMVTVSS VH 2: EVQLVESGGGLVQPGRSLRLSCAASGFTFDDYSMHWVRQAPGKGLEWVSGISWNSGSKGYADSVKGRFTISRDNAKNSLYLQMNSLRAEDTALYYCAKDGSGYGKFYHYGLDVWGQGTTVTVSS VL: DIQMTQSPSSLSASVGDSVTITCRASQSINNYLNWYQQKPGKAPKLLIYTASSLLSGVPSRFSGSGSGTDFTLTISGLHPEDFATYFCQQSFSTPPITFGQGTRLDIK
Completion: 274
